These entries and their values trace back to patent US10385108B2.

# subject of test: MC1R (Homo sapiens)
# procedure text: Competitive binding with 125I-NDP-MSH, HEK293 membrane preparations, MC1R
# measurement context: Ki MC1R, competition with 125I-NDP-MSH
Where a SMILES comes first, the peptide text is derived from it. [ ]: non-standard residue; d: D form. dBta = N[C@H](Cc1csc2ccccc12)C(=O)O; d3Pal = N[C@H](Cc1cccnc1)C(=O)O
test readout: Ki (nM)
Give just the numeric value; nM need not be written.

Worked examples follow.
CSCC[C@@H](NC(=O)[C@@H](CC(=O)O)NC(=O)[C@@H](Cc1c[nH]cn1)NC(=O)[C@@H](Cc1ccccc1)NC(=O)[C@@H](CCCNC(=N)N)NC(=O)[C@@H](Cc1c[nH]c2ccccc12)NC(=O)CNC(=O)[C@@H](CCCCN)NC(=O)[C@H]1CCCN1C(=O)[C@H](NC(C)=O)C(C)C)C(=O)N[C@H](CO)C(=O)N[C@H](Cc1ccc(O)cc1)C(=O)N[C@H](CO)C(N)=O [compound 875, vpkGwrfhdmsys] (Ac-[dV][dP][dK]G[dW][dR][dF][dH][dD][dM][dS][dY][dS]-NH2); 400
CC(=O)N[C@@H](C(=O)N1CCC[C@@H]1C(=O)N[C@H](CCCCN)C(=O)NCC(=O)N[C@H](Cc1c[nH]c2ccccc12)C(=O)N[C@H](CCCNC(=N)N)C(=O)N[C@H](Cc1ccccc1)C(=O)N[C@H](Cc1c[nH]cn1)C(=O)N[C@H](CCC(=O)O)C(=O)N[C@H](C)C(=O)N[C@H](CO)C(=O)N[C@H](Cc1ccc(O)cc1)C(=O)N[C@H](CO)C(N)=O)C(C)C [compound 807, vpkGwrfheasys] (Ac-[dV][dP][dK]G[dW][dR][dF][dH][dE][dA][dS][dY][dS]-NH2); 1400
CSCC[C@@H](NC(=O)[C@@H](CCC(=O)O)NC(=O)[C@@H](Cc1c[nH]cn1)NC(=O)[C@@H](Cc1cccnc1)NC(=O)[C@@H](CCCNC(=N)N)NC(=O)[C@@H](Cc1c[nH]c2ccccc12)NC(=O)CNC(=O)[C@@H](CCCCN)NC(=O)[C@H]1CCCN1C(=O)[C@H](NC(C)=O)C(C)C)C(=O)N[C@H](CO)C(=O)N[C@H](Cc1ccc(O)cc1)C(=O)N[C@H](CO)C(N)=O [compound 867, vpkGwr(3-pyridyl-D-Alanine)hemsys] (Ac-[dV][dP][dK]G[dW][dR][d3Pal][dH][dE][dM][dS][dY][dS]-NH2); 480

Using MC1R (Homo sapiens) as the test system, report measured Ki of CSCC[C@@H](NC(=O)[C@@H](CCC(=O)O)NC(=O)[C@@H](Cc1c[nH]cn1)NC(=O)[C@@H](Cc1ccccc1)NC(=O)[C@@H](CCCNC(=N)N)NC(=O)[C@@H](Cc1csc2ccccc12)NC(=O)CNC(=O)[C@@H](CCCCN)NC(=O)[C@H]1CCCN1C(=O)[C@H](NC(C)=O)C(C)C)C(=O)N[C@H](CO)C(=O)N[C@H](Cc1ccc(O)cc1)C(=O)N[C@H](CO)C(N)=O [compound 859, vpkG(3-benzothienyl-D-Alanine)rfhemsys] (Ac-[dV][dP][dK]G[dBta][dR][dF][dH][dE][dM][dS][dY][dS]-NH2) .
206

Using MC1R (Homo sapiens) as the test system, report measured Ki of CSCC[C@@H](NC(=O)[C@@H](CCC(=O)O)NC(=O)[C@@H](Cc1c[nH]cn1)NC(=O)[C@H](Cc1ccccc1)NC(=O)[C@@H](CCCNC(=N)N)NC(=O)[C@@H](Cc1c[nH]c2ccccc12)NC(=O)CNC(=O)[C@@H](CCCCN)NC(=O)[C@H]1CCCN1C(=O)[C@H](NC(C)=O)C(C)C)C(=O)N[C@H](CO)C(=O)N[C@H](Cc1ccc(O)cc1)C(=O)N[C@H](CO)C(N)=O .
72

====

Recorded Ki, one value per entry.
# subject of test: MC1R (Homo sapiens, UniProt Q01726)
# Sequence (Q01726 whole entry): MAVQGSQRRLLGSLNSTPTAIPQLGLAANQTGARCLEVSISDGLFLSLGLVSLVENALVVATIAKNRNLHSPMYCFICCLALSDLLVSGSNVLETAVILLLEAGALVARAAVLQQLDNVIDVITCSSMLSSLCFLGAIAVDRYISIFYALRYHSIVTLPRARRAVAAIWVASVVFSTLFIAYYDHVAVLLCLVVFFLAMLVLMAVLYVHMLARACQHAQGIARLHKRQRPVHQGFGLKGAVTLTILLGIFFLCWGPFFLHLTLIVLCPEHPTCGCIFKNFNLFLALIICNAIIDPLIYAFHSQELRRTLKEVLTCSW
# procedure text: Competitive binding with 125I-NDP-MSH, HEK293 membrane preparations, MC1R
# measurement context: Ki MC1R, competition with 125I-NDP-MSH
Give just the numeric value; nM need not be written.

CSCC[C@@H](NC(=O)[C@@H](CCC(=O)O)NC(=O)[C@@H](Cc1c[nH]cn1)NC(=O)[C@@H](Cc1ccc([N+](=O)[O-])cc1)NC(=O)[C@@H](CCCNC(=N)N)NC(=O)[C@@H](Cc1c[nH]c2ccccc12)NC(=O)CNC(=O)[C@@H](CCCCN)NC(=O)[C@H]1CCCN1C(=O)[C@H](NC(C)=O)C(C)C)C(=O)N[C@H](CO)C(=O)N[C@H](Cc1ccc(O)cc1)C(=O)N[C@H](CO)C(N)=O; 324
CCCCSCC[C@@H](NC(=O)[C@@H](CCC(=O)O)NC(=O)[C@@H](Cc1c[nH]cn1)NC(=O)[C@@H](Cc1ccccc1)NC(=O)[C@@H](CCCNC(=N)N)NC(=O)[C@@H](Cc1c[nH]c2ccccc12)NC(=O)CNC(=O)[C@@H](CCCCN)NC(=O)[C@H]1CCCN1C(=O)[C@H](NC(C)=O)C(C)C)C(=O)N[C@H](CO)C(=O)N[C@H](Cc1ccc(O)cc1)C(=O)N[C@H](CO)C(N)=O; 2.3

Then there is this compound:
Please report Ki for the following compound: CSCC[C@@H](NC(=O)[C@@H](CCC(=O)O)NC(=O)[C@H](Cc1c[nH]cn1)NC(=O)[C@@H](Cc1ccccc1)NC(=O)[C@@H](CCCNC(=N)N)NC(=O)[C@@H](Cc1c[nH]c2ccccc12)NC(=O)CNC(=O)[C@@H](CCCCN)NC(=O)[C@H]1CCCN1C(=O)[C@H](NC(C)=O)C(C)C)C(=O)N[C@H](CO)C(=O)N[C@H](Cc1ccc(O)cc1)C(=O)N[C@H](CO)C(N)=O
19

====

# subject of test: MC5R (Homo sapiens, UniProt P33032)
# Sequence (P33032 whole entry): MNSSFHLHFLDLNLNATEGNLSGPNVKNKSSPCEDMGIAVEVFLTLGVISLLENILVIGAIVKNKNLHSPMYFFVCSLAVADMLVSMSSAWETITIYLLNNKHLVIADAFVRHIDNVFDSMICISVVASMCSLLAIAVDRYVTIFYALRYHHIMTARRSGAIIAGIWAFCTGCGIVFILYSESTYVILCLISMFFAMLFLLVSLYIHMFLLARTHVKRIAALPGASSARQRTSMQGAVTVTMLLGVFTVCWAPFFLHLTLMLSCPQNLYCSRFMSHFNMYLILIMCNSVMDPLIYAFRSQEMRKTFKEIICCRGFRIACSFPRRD
# procedure text: Competitive binding with 125I-NDP-MSH, HEK293 membrane preparations, MC5R
# measurement context: Ki MC5R, competition with 125I-NDP-MSH; cells noted in μM
test readout: Ki

CSCC[C@@H](NC(=O)[C@@H](CCC(=O)O)NC(=O)[C@@H](Cc1c[nH]cn1)NC(=O)[C@@H](CC1CCCCC1)NC(=O)[C@@H](CCCNC(=N)N)NC(=O)[C@@H](Cc1c[nH]c2ccccc12)NC(=O)CNC(=O)[C@@H](CCCCN)NC(=O)[C@H]1CCCN1C(=O)[C@H](NC(C)=O)C(C)C)C(=O)N[C@H](CO)C(=O)N[C@H](Cc1ccc(O)cc1)C(=O)N[C@H](CO)C(N)=O; ~25 µM
CCCCSCC[C@@H](NC(=O)[C@@H](CCC(=O)O)NC(=O)[C@@H](Cc1c[nH]cn1)NC(=O)[C@@H](CC1CCCCC1)NC(=O)[C@@H](CCCNC(=N)N)NC(=O)[C@@H](Cc1c[nH]c2ccccc12)NC(=O)CNC(=O)[C@@H](CCCCN)NC(=O)[C@H]1CCCN1C(=O)[C@H](NC(C)=O)C(C)C)C(=O)N[C@H](CO)C(=O)N[C@H](Cc1ccc(O)cc1)C(=O)N[C@H](CO)C(N)=O; ~4.5 µM

Then there is this compound:
Please report Ki for the following compound: CSCC[C@@H](NC(=O)[C@@H](CCC(=O)O)NC(=O)[C@@H](Cc1c[nH]cn1)NC(=O)[C@@H](Cc1ccccc1)NC(=O)[C@@H](CCCNC(=N)N)NC(=O)[C@H](Cc1c[nH]c2ccccc12)NC(=O)CNC(=O)[C@@H](CCCCN)NC(=O)[C@H]1CCCN1C(=O)[C@H](NC(C)=O)C(C)C)C(=O)N[C@H](CO)C(=O)N[C@H](Cc1ccc(O)cc1)C(=O)N[C@H](CO)C(N)=O
~27 µM

====

# subject of test: MC1R (Homo sapiens, UniProt Q01726)
# procedure text: Competitive binding with 125I-NDP-MSH, HEK293 membrane preparations, MC1R;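 further: Read-out: receptor-bound radioligand retained by filtration and counted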
# measurement context: Ki MC1R, competition with 125I-NDP-MSH
Where a SMILES comes first, the peptide text is derived from it. [ ]: non-standard residue; d: D form. The star is where a group is joined. d2Thi = N[C@H](Cc1cccs1)C(=O)O; NH(CH2)3Ph = c1ccc(CCCN*)cc1
test readout: Ki (nM)
Give just the numeric value; nM need not be written.

Worked examples follow.
CSCC[C@@H](NC(=O)[C@@H](C)NC(=O)[C@@H](Cc1c[nH]cn1)NC(=O)[C@@H](Cc1ccccc1)NC(=O)[C@@H](CCCNC(=N)N)NC(=O)[C@@H](Cc1c[nH]c2ccccc12)NC(=O)CNC(=O)[C@@H](CCCCN)NC(=O)[C@H]1CCCN1C(=O)[C@H](NC(C)=O)C(C)C)C(=O)N[C@H](CO)C(=O)N[C@H](Cc1ccc(O)cc1)C(=O)N[C@H](CO)C(N)=O [compound 808, vpkGwrfhamsys] (Ac-[dV][dP][dK]G[dW][dR][dF][dH][dA][dM][dS][dY][dS]-NH2); 2.5
CC[C@@H](C)[C@@H](NC(=O)[C@@H](CO)NC(=O)[C@@H](Cc1c[nH]cn1)NC(=O)[C@H](Cc1ccccc1)NC(=O)[C@@H](CCCNC(=N)N)NC(=O)[C@@H](Cc1c[nH]c2ccccc12)NC(=O)CNC(=O)[C@@H](CCCCN)NC(=O)[C@H]1CCCN1C(=O)[C@H](NC(C)=O)C(C)C)C(=O)N[C@@H](C(=O)N[C@H](CO)C(=O)N[C@H](CO)C(N)=O)[C@H](C)CC [compound 880, vpkGwrFhsiiss] (Ac-[dV][dP][dK]G[dW][dR]F[dH][dS][dI][dI][dS][dS]-NH2); 1.8
CSCC[C@@H](NC(=O)[C@@H](CCC(=O)O)NC(=O)[C@@H](Cc1c[nH]cn1)NC(=O)[C@@H](Cc1ccccc1)NC(=O)[C@@H](CCCNC(=N)N)NC(=O)[C@@H](Cc1ccccc1)NC(=O)CNC(=O)[C@@H](CCCCN)NC(=O)[C@H]1CCCN1C(=O)[C@H](NC(C)=O)C(C)C)C(=O)N[C@H](CO)C(=O)N[C@H](Cc1ccc(O)cc1)C(=O)N[C@H](CO)C(N)=O [862-b, vpkGfrfhemsys] (Ac-[dV][dP][dK]G[dF][dR][dF][dH][dE][dM][dS][dY][dS]-NH2); 128
CSCC[C@@H](NC(=O)[C@@H](CCC(=O)O)NC(=O)[C@@H](Cc1c[nH]cn1)NC(=O)[C@@H](Cc1cccs1)NC(=O)[C@@H](CCCNC(=N)N)NC(=O)[C@@H](Cc1c[nH]c2ccccc12)NC(=O)CNC(=O)[C@@H](CCCCN)NC(=O)[C@H]1CCCN1C(=O)[C@H](NC(C)=O)C(C)C)C(=O)N[C@H](CO)C(=O)N[C@H](Cc1ccc(O)cc1)C(=O)N[C@H](CO)C(N)=O [compound 868, vpkGwr(2-thienyl-D-Alanine)hemsys] (Ac-[dV][dP][dK]G[dW][dR][d2Thi][dH][dE][dM][dS][dY][dS]-NH2); 5.4
CSCC[C@@H](NC(=O)[C@@H](CCC(=O)O)NC(=O)[C@@H](Cc1c[nH]cn1)NC(=O)[C@@H](Cc1ccccc1)NC(=O)[C@@H](CCCNC(=N)N)NC(=O)[C@@H](Cc1c[nH]c2ccccc12)NC(=O)CNC(=O)[C@@H](CCCCN)NC(=O)[C@H]1CCCN1C(=O)[C@H](NC(C)=O)C(C)C)C(=O)N[C@H](CO)C(=O)N[C@H](Cc1ccc(O)cc1)C(=O)N[C@H](CO)C(N)=O; 4.6

Using MC1R (Homo sapiens, UniProt Q01726) as the test system, report measured Ki of CSCC[C@@H](NC(=O)[C@@H](CCC(=O)O)NC(=O)[C@@H](Cc1c[nH]cn1)NC(=O)[C@@H](Cc1ccccc1)NC(=O)[C@@H](CCCNC(=N)N)NC(=O)[C@H](Cc1c[nH]c2ccccc12)NC(=O)CNC(=O)[C@@H](CCCCN)NC(=O)[C@H]1CCCN1C(=O)[C@H](NC(C)=O)C(C)C)C(=O)N[C@H](CO)C(=O)N[C@H](Cc1ccc(O)cc1)C(=O)N[C@H](CO)C(N)=O .
6.5

Using MC1R (Homo sapiens, UniProt Q01726) as the test system, report measured Ki of CSCC[C@H](NC(=O)[C@H](CO)NC(=O)[C@H](Cc1ccc(O)cc1)NC(=O)[C@H](CO)NC(C)=O)C(=O)N[C@@H](CCC(=O)O)C(=O)N[C@@H](Cc1c[nH]cn1)C(=O)N[C@@H](CC1CCCCC1)C(=O)N[C@@H](CCCNC(=N)N)C(=O)N[C@@H](Cc1c[nH]c2ccccc12)C(=O)NCC(=O)N[C@@H](CCCCN)C(=O)N1CCC[C@H]1C(=O)N[C@H](C(N)=O)C(C)C .
0.51

Using MC1R (Homo sapiens, UniProt Q01726) as the test system, report measured Ki of COc1ccc2[nH]cc(C[C@@H](NC(=O)CNC(=O)[C@@H](CCCCN)NC(=O)[C@H]3CCCN3C(=O)[C@H](NC(C)=O)C(C)C)C(=O)N[C@H](CCCNC(=N)N)C(=O)N[C@H](Cc3ccccc3)C(=O)N[C@H](Cc3c[nH]cn3)C(=O)N[C@H](CCC(=O)O)C(=O)N[C@H](CCSC)C(=O)N[C@H](CO)C(=O)N[C@H](Cc3ccc(O)cc3)C(=O)N[C@H](CO)C(N)=O)c2c1 .
75

Using MC1R (Homo sapiens, UniProt Q01726) as the test system, report measured Ki of CC(C)[C@@H](N)C(=O)N1CCC[C@@H]1C(=O)N[C@H](CCCCN)C(=O)NCC(=O)N[C@H](Cc1c[nH]c2ccccc12)C(=O)N[C@H](CCCNC(=N)N)C(=O)N[C@H](Cc1ccccc1)C(=O)N[C@H](Cc1c[nH]cn1)C(=O)NCCCc1ccccc1 [compound 847, vpkGwrfh] (H-[dV][dP][dK]G[dW][dR][dF][dH]-{NH(CH2)3Ph}) .
104
